Here, each record is paired with measured pIC50 data.
# target-or-test-system: T1, human IGF-1 receptor (human, UniProt P08069 31-1367)
# T1 construct: whole, on cells
# test-summary: SPA competition vs 125I-IGF-1, human IGF-1R membranes (Example 3)
Positions of bridges follow the written chain, without caps; N, C: chain ends. Chains are numbered I, II in the order given. No end group written: not given here.
pIC50 field: float, defined as -log10 of concentration (mol/L).

Known pIC50 results, listed for orientation:
binder | pIC50
IGF-1 A:In (1-17)-IGF-1 B (18-30) (disulfide I:7-II:7 (inferred); not fully specified (bridges); ends not checked; also: C-terminal amide (chain not given here), my derivation) chain 1: GIVDECCFRSCDLRRLEMYCA-NH2 chain 2: FVNQHLCGSHLVEALYLVCGDRGFYFNKPT-NH2 | 7.20
IGF-1 A (H8 A9 N21):B (H5D10Y16L17 A22) DPI A-COOH (ends and bridges not checked) chain 1: GIVDECCHASCDLRRLEMYCN-OH chain 2: GPEHLCGADLVDALYLVCGDAGFY-NH2 | 7.64
IGF-1 A:In B(1-5)-IGF-1 B(YL) (6-30) (disulfide I:6-I:11, I:20-II:19, I:7-II:7; also: disulfides as in insulin, my derivation) A chain: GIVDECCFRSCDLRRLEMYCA-NH2 B chain: FVNQHLCGAELVDALYLVCGDRGFYFNKPT-NH2 | 7.56

Turning to the following binder.
Give the measured pIC50 of IGF-1 A:IGF-1 B(1-8)-In (9-17)-IGF-1 B (18-30) (disulfide I:7-II:6 (inferred); not fully specified (bridges); ends not checked; also: C-terminal amide (chain not given here), my derivation) chain 1: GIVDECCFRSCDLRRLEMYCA-NH2 chain 2: GPETLCGSHLVEALYLVCGDRGFYFNKPT-NH2 . 6.88
